assay overview: in vitro
details: human, hek293t cells
experimental endpoint: viability at 48 h, 25 µM (%)
Write it as a number; the unit % goes unstated.

Consider the following illustrative entries.
- O=C(CCl)N(Cc1ccco1)C12CC3CC(CC(C3)C1)C2: 1.5
- C=CC(=O)N[C@H]1C[C@H](S(C)(=O)=O)C1: 83.6
- N#CC(=Cc1ccc(Cl)c([N+](=O)[O-])c1)C(=O)N1CCCC1: 5.4

Problem: # get_value(readout='viability at 48 h, 25 µM', item= CNC(=O)c1ccn(C2CCCN(C(=O)CCl)C2)n1 (stereo not shown) )
Solution: 1.61

Problem: # get_value(readout='viability at 48 h, 25 µM', item= C=CC(=O)NCC(c1c(F)cccc1F)N1CC(C)OC(C)C1 (stereo not shown) )
Solution: 72.5

Problem: # get_value(readout='viability at 48 h, 25 µM', item= C=CC(=O)N(Cc1nonc1C)CC1C(C)=CCCC1C (stereo not shown) )
Solution: 108

Problem: # get_value(readout='viability at 48 h, 25 µM', item= "O=C(CCl)Cc1c(Cl)cccc1Cl" )
Solution: 23.3

Problem: # get_value(readout='viability at 48 h, 25 µM', item= "CCOc1ccccc1NC(=O)C(C#N)=Cc1c(F)cccc1F" )
Solution: 78.1

Problem: # get_value(readout='viability at 48 h, 25 µM', item= "C=CC(=O)N1CCC(C(=O)Nc2nncn2C)(c2ccccc2)CC1" )
Solution: 106

Problem: # get_value(readout='viability at 48 h, 25 µM', item= "CC(=O)Nc1ccc(C=C(C#N)C(=O)Nc2ccccc2Cl)cc1" )
Solution: 86.4

###

assay overview: in vitro
details: human, hek293t cells
experimental endpoint: viability at 48 h, 25 µM (%)
Write it as a number; the unit % goes unstated.

- C=CC(=O)NCC(=O)c1scc(C)c1Cl: 65.2
- N#CC(=Cc1ccc(N2CCCC2)cc1)C(=O)N1CCC(C(N)=O)CC1: 108
- O=C(CCl)NCc1cc(C(F)F)no1: 5.77
- O=C(CCl)Nc1ccccc1C(=O)NCc1ccccc1 [4-C03, N-benzyl-2-(2-chloroacetamido)benzamide]: 0.33
- COc1cc2c(cc1OC)C(c1ccccc1)N(C(=O)CCl)CC2 (stereo not drawn): 0.105

From here, focus on the item given below.
Problem: # get_value(readout='viability at 48 h, 25 µM', item= "Cc1ccoc1C=C(C#N)C(=O)NCCc1ccccc1" )
Solution: 93.9

###

assay overview: in vitro
details: human, hek293t cells
experimental endpoint: viability at 48 h, 25 µM (%)
Write it as a number; the unit % goes unstated.

Consider the following illustrative entries.
- CCCn1c(N)c(C(=O)CCl)c(=O)n(C)c1=O: 86.3
- CC(Cl)C(=O)c1ccc2c(c1)CCC2 (stereo not drawn): 95.2
- NC(=O)CCN(C(=O)CCl)c1ccc(F)cc1: 1.62
- Cc1ccc2nc(-c3ccc(NC(=O)CCl)cc3)sc2c1: 3.47
- CC(O)=C(C#N)C(=O)Nc1ccc(-c2ccccc2Cl)c(Cl)c1: 117

From here, focus on the item given below.
Problem: # get_value(readout='viability at 48 h, 25 µM', item= "O=C(CCl)NCc1nn(-c2ccccc2)c2c1CCC2" )
Solution: 0.565
